- assay target: sigma-2 receptor (σ2R, Tmem97) (Homo sapiens)
- test protocol: biochemical
- Assay type: binding
For each of the compounds below, state its pKi.
Answers are plain numbers, as −log10 of the molar value.

Known pKi results, listed for orientation:
>>> quantitative_readout("CCCCc1oc2ccccc2c1C(=O)c1cc(I)c(OCCN(CC)CC)c(I)c1 [amiodarone]")
6.77
>>> quantitative_readout("CN(C)CC1CCOC1(c1ccccc1)c1ccccc1 (stereo not drawn) [ANAVEX2–73, Blarcamesine]")
5.69

For C[C@@H]1CN(CCCn2c3ccccc3c3ccccc32)C[C@H](C)N1 [rimcazole] , what is its reported pKi?
7.30

---

- assay target: sigma-2 receptor (σ2R, Tmem97) (Homo sapiens, UniProt Q5BJF2)
- Sequence (Q5BJF2 whole entry, species assumed): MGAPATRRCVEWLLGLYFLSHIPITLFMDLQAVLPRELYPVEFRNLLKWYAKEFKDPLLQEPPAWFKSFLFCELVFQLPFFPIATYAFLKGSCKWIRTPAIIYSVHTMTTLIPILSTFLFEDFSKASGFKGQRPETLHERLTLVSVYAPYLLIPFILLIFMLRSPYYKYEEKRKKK
- test protocol: biochemical
- Type: binding
- test context: read-out: Kiσ2R
Consider the following molecules; for each one, report its pKi.
Numbers only, as −log10 of the molar value.

>>> quantitative_readout("COc1ccc(CCN2CCN(CCCc3ccccc3)CC2)cc1OC")
7.76
>>> quantitative_readout("CN1CCN(CCc2ccc(Cl)c(Cl)c2)CC1")
6.91

Hi team, please reply with pKi for each item in this list.
1. CCCN1CCC=C(c2cc(-c3ccc(C)cc3)no2)C1
2. CN(C)CCN(C)CCc1ccc(Cl)c(Cl)c1

[6.45, 7.89]

---

// values below are CC50; system is ScN2a-RML cells

>>> result("CN(C)CCN(C)CCc1ccc(Cl)c(Cl)c1 [BD1047]")
"> 25 µM"
>>> result("CCCN1CCC=C(c2cc(-c3ccc(C)cc3)no2)C1 [PD 144418]")
"> 22 µM"
>>> result("COc1ccc(CCN2CCN(CCCc3ccccc3)CC2)cc1OC [SA 4503, Cutamesine]")
"> 50 µM"
>>> result("CN1CCN(CCc2ccc(Cl)c(Cl)c2)CC1 [BD1063]")
"> 50 µM"

Now consider the entry below.
I am curious: what CC50 value has been reported for COc1cccc2c1CCCC2CCCN1CCN(C2CCCCC2)CC1 (centres unmarked) [PB-28] ?
7.8 µM

---

Assign CC50 to each entry below.
- test protocol: in vitro
- test context: mouse

>>> result("OC(CCCN1CCN(c2ncc(F)cn2)CC1)c1ccc(F)cc1 (centres unmarked) [BMY-14802]")
"> 50 µM"
>>> result("CC(C)=CCN1CC[C@]2(C)c3cc(O)ccc3C[C@H]1[C@H]2C [(+)-pentazocine]")
"> 50 µM"
>>> result("CN(C)CC1CCOC1(c1ccccc1)c1ccccc1 (centres unmarked) [ANAVEX2–73, Blarcamesine]")
"> 50 µM"
>>> result("Cc1ccccc1NC(=N)Nc1ccccc1C [DTG, ditolylguanidine]")
"> 50 µM"

Here is the next item to consider.
Any idea what CC50 was measured for C[C@@H]1CN(CCCn2c3ccccc3c3ccccc32)C[C@H](C)N1 [rimcazole] ?
10 µM
